Just for reference, the RNAGym collection of RNA variant scans (doi:10.1073/pnas.2313332121) is where these values come from.

B1: TPR 5TU (parent)
chain: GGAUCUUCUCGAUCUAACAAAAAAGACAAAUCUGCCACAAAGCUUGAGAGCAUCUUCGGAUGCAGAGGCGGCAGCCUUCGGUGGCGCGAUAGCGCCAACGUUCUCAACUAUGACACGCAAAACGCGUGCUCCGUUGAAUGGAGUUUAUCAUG

Variants of: B1
test-summary: polymerase ribozyme fitness, log enrichment relative to wild type (log ratio); higher = more active; in vitro selection for triplet polymerase activity
This sample holds only a part of the variants without activity.
assay-endpoint: polymerase ribozyme fitness (log ratio)
No unit in the answer, please; the number alone is enough.

Consider the following illustrative entries.
alteration	polymerase ribozyme fitness (log ratio)
A20U C36G G70A	-4.1
C54U G92C	-1.07
C93A U101C G124U	-2.74
A41G G59A U61A	-0.462
G83U C93U C96G U135A	-2.89
A52G C93U C116U	-1.48

**Query** Could you please provide reported polymerase ribozyme fitness (log ratio) for C76A C95U ? Thanks!
**Result** 0.252

**Query** Could you please provide reported polymerase ribozyme fitness (log ratio) for A41U A120C C125A A142C ? Thanks!
**Result** -4.12

**Query** Could you please provide reported polymerase ribozyme fitness (log ratio) for U55A U102G ? Thanks!
**Result** -4.04

**Query** Could you please provide reported polymerase ribozyme fitness (log ratio) for C14G C75U G94C A122U G124A ? Thanks!
**Result** -3.86

**Query** Could you please provide reported polymerase ribozyme fitness (log ratio) for A12G C57U C87U C103G ? Thanks!
**Result** -2.19
